The measured values listed here are drawn from ChEMBL document CHEMBL1201862.

Molecular target: Aminopeptidase N (Plasmodium falciparum FcB1/Columbia, UniProt O96935)
Sequence (O96935 whole entry): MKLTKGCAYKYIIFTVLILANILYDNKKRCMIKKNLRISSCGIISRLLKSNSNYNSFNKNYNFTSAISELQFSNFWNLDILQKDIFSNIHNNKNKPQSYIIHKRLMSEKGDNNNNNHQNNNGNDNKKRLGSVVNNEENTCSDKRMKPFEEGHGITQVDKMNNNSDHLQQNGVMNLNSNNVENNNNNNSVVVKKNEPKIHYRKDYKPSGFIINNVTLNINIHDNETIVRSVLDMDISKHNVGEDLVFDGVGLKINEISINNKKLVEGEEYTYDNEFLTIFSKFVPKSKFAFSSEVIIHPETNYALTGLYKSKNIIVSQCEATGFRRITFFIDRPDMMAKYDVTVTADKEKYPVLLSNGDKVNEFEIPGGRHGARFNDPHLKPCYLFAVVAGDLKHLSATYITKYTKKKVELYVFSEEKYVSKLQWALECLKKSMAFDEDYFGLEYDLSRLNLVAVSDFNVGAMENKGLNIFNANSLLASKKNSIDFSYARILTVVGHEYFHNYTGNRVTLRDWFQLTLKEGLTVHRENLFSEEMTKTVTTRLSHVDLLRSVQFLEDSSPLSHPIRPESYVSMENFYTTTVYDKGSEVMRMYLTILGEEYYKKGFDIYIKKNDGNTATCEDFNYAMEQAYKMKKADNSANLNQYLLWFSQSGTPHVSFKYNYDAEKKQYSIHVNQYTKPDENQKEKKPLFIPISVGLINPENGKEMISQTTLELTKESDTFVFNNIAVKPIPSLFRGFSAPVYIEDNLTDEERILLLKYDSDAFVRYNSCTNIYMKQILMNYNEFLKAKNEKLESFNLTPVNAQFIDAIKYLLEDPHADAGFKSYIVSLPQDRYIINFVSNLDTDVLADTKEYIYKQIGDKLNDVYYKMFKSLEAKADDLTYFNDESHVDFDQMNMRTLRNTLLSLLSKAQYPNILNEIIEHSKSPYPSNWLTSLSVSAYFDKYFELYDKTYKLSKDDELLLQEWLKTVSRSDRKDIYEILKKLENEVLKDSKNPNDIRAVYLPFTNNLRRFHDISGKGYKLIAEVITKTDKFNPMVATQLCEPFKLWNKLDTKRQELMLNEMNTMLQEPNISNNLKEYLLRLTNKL
Experiment: P. falciparum M1AAP inhibitors, biochemical, fluorogenic H-Leu-NHMec substrate, 1536-well (AID 1445)
Parameters: species or system Plasmodium falciparum 3D7, 3D7
The source made the active and inactive calls.
Measured IC50 accompanies every entry in the list below.

structure-as-smiles | IC50
Cc1cccc(N2C(=O)/C(=C/Nc3ccccc3-c3nnc(S)nc3O)c3ccccc3C2=O)n1 | 60.4 µM (active)
N=C1/C(=C\c2coc3ccccc3c2=O)C(=O)N=C2SC(c3ccncc3)=NN12 | 44 µM (active)
CCS(=O)(=O)C1=NN2C(=N)/C(=C\c3ccc(SCc4ccco4)o3)C(=O)N=C2S1 | 24.2 µM (active)
Cc1ccc(OCC(=O)N2CCN(C(=O)CCC3CCCC3)CC2)cc1 | 57.3 µM (active)
Oc1ccc(Cl)cc1/N=C/c1c[nH]nc1O | 14.3 µM (active)
CN(C)CCNc1nc(S(=O)(=O)c2ccccc2)c(Cl)s1 | 51.9 µM (active)

====

Measured EC50 accompanies every entry in the list below.
Assay: cells
Format: functional, cell-based
Calls of active or inactive are those of the source.
property-name: EC50

compound | assay-result
Cc1ccc(C(=O)Nc2c3c(nn2C(C)(C)C)CS(=O)(=O)C3)cc1C | > 350 µM (not active)
COc1cccc(/C=N/Nc2ncnc3scc(-c4ccccc4)c23)c1O | > 350 µM (not active)
CCCC(=O)NC(c1ccccc1)c1ccc2cccnc2c1O (stereo not given) | > 350 µM (not active)
Cc1ccc(NC(=O)CSc2ncc3ccccn23)cc1 | 41.4 µM (active)
COc1ccc(C2NN=C(c3ccc(C)cc3)S2)cc1 (stereo not given) | 24.6 µM (active)

====

Target: Induced myeloid leukemia cell differentiation protein Mcl-1 (Homo sapiens, UniProt Q07820)
Sequence (Q07820 whole entry): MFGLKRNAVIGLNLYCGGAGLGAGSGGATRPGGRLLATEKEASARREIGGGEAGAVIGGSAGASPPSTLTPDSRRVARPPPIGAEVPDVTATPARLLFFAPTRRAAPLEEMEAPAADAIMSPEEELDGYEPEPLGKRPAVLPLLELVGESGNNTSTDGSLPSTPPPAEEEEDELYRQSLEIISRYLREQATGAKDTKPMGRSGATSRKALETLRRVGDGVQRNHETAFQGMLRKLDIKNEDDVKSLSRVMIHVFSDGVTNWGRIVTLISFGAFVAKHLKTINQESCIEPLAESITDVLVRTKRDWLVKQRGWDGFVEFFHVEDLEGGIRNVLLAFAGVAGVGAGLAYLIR
Assay type: functional
Calls of active or inactive are those of the source.

compound | experimental-system | IC50
CCS(=O)(=O)C1=NN2C(=N)/C(=C\c3ccc(SCc4ccco4)o3)C(=O)N=C2S1 | Induced myeloid leukemia cell differentiation protein Mcl-1 (Homo sapiens, UniProt Q07820) | 3.96 µM (active)
O=C(CSc1ccsc1[N+](=O)[O-])Nc1cccc(F)c1 | Induced myeloid leukemia cell differentiation protein Mcl-1 (Homo sapiens, UniProt Q07820) | 2.92 µM (active)
COc1ccc(/N=C2\S/C(=C\c3ccc(OC(C)C(=O)O)c(OC)c3)C(=O)N2CCc2c[nH]c3ccccc23)cc1 (stereo not given) | Induced myeloid leukemia cell differentiation protein Mcl-1 (Homo sapiens, UniProt Q07820) | 7.55 µM (active)
CN(C)c1ccc(C(CNC(=O)c2ccc(C#N)cc2)c2c[nH]c3ccccc23)cc1 (stereo not given) | Induced myeloid leukemia cell differentiation protein Mcl-1 (Homo sapiens, UniProt Q07820) | 2.78 µM (not active)
COc1ccc(NC(=O)CN2C(=O)/C(=C3\SC(=S)N(C4CCS(=O)(=O)C4)C3=O)c3ccccc32)cc1 (stereo not given) | Induced myeloid leukemia cell differentiation protein Mcl-1 (Homo sapiens, UniProt Q07820) | 3.39 µM (active)

====

Molecular target: Microphthalmia-associated transcription factor (Homo sapiens)
Sequence (O75030 whole entry): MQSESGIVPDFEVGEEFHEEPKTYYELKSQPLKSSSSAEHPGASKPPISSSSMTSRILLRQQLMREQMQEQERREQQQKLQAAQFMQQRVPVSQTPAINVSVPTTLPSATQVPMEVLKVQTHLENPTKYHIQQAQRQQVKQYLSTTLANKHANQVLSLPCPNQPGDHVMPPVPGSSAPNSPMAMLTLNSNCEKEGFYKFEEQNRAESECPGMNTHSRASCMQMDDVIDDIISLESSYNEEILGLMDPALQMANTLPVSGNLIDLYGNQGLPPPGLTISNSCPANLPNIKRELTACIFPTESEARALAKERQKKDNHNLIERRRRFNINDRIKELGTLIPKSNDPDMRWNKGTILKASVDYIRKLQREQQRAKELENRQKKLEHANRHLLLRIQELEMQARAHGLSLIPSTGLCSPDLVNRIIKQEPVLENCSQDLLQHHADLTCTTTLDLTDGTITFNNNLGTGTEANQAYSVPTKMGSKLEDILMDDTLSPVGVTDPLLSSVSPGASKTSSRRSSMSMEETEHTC
Experiment: TRPM1 promoter luciferase signal decrease, dose response, MITF inhibitor project, cell-based, SK-MEL-5, cherry-picked, set 3 (AID 493073);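 note: SK-MEL-5 melanoma cells with luciferase driven by the MITF target TRPM1 promoter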
Format: functional
Active and inactive are the calls of the source.

compound | AC50
CCC(=O)OCCNc1cc(Sc2nccn2C)c2nonc2c1[N+](=O)[O-] | 7.16 µM (active)
CC[n+]1c(C=C2C=CN(C)C=C2)ccc2cc(C)ccc21 | 1.74 µM (active)
O=C1C=C(N(CCO)Cc2ccccc2)c2ccccc2C1=O | 4.78 µM (active)
O=C1c2cc(F)ccc2-n2c1nc1ccccc1c2=O | 1.05 µM (active)
COC(=O)c1ccc(/C=C(\C#N)C(=O)NC(C)c2ccccc2)cc1 (stereo not given) | 10.7 µM (active)
